Can you tell me Rank (before) for the items I'm about to list?
Biological target: MyD88^TIR (Homo sapiens, UniProt Q99836)
Construct: MyD88 (residues 148–296); 6xHis; made in house; host or cells: E. coli BL21 (DE3)
Sequence (Q99836 148-296): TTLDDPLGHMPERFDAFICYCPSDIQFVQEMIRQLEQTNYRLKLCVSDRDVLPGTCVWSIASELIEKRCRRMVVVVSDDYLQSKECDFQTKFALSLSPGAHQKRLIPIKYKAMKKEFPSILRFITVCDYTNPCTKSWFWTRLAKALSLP
Test: T‐Surf phage library (P8 and P3) selection against MyD88^TIR, four rounds, NGS read counts
Type: binding
Settings: P3_MyD88: rank by count before grouping
# print the numeric value only

Request: Fill in the blank: the reported Rank (before) of LKVEAGVRRWKKRAN is ____.
Result: 1074

Request: Tell me the measured Rank (before) of YYLDPSHLRKQSVEFS , please.
Result: 1451

Request: Given SELRVVDDGSVSPLVT , state its recorded Rank (before).
Result: 3029

Request: Which Rank (before) is reported for this sequence? SSLREGLWRLQELSKK
Result: 3273

Request: Can you look up the measured Rank (before) of RFWERLRPALKERLP for me?
Result: 2551

Request: Entry ISYRQGRWRLLELSKK has what Rank (before)?
Result: 2919

Request: Sample YAFTGHLHRDLVQRGL — what was its Rank (before)?
Result: 1521

Request: Query: Rank (before); subject: EHHLDLPRGKAIKPAILG
Result: 2117

Request: Value lookup for Rank (before); key = YAFTGHLQRYLVHRGV
Result: 1532

Request: What does the data say about its Rank (before)? Entry: DQHLDLPRGKAIKPELLG
Result: 2066

Request: Suppose we examine the sequence THSHNAVPAAANLSGW ; what Rank (before) value has been reported?
Result: 3289

Request: Recorded Rank (before) for NQWRNALTAAAYMSCR , please?
Result: 3492

Request: I have this sequence here, SSFREGLWRLQELSKT , and I need its recorded Rank (before).
Result: 3187

Request: Suppose we examine the sequence SSFREGLWRLQALSKK ; what Rank (before) value has been reported?
Result: 3185

Request: Give its Rank (before) value. Item: RSFRKGLWRLLELSNK
Result: 2695

Request: I have this sequence here, DSQSSRFKDDADLVG , and I need its recorded Rank (before).
Result: 635

Request: Report Rank (before) for EWIREQLRPALDELVL please.
Result: 648

Request: Sample YRKWGYLRIWDRWRFA — what was its Rank (before)?
Result: 1613

Request: Using the record for DTALTNSGFHTLRDND , report its Rank (before).
Result: 2091

Request: Recorded Rank (before) of DHHLDLSRGKSIKPDILG , please.
Result: 2053

Request: Value lookup for Rank (before); key = SLRQNLVSNLLEEFKR
Result: 3075

Request: What does the data say about its Rank (before)? Entry: YTALTNSGFLSFRDTD
Result: 1661

Request: Bench note: what Rank (before) did EWIRTAASGAERTSA show?
Result: 2178

Request: Record request: Rank (before) value, item SSFRKGLWRLLELLKK
Result: 3231

Request: Requested field: Rank (before). Item: LKVDSWRQALEKAGNL
Result: 2469

Request: Given the entry DHHLICRVAKRLNRKFW , report its measured Rank (before).
Result: 631

Request: Recorded Rank (before) of GNDVLGRKGLRVGSKD , please.
Result: 1875

Request: Which Rank (before) is reported for this sequence? LKWGEPYCWSKLRYAM
Result: 2450

Request: What measured Rank (before) goes with SSLLEGRWALLELSKK ?
Result: 3253

Request: For YLKWGYPWFGIVCVL , what is its reported Rank (before)?
Result: 855

Request: Query: Rank (before); subject: SSFREGLWHLLVLSKK
Result: 3197

Request: Sample SSFRRPVASAGTEQK — what was its Rank (before)?
Result: 3247

Request: GET /values?readout=Rank (before)&item= YHPLDLPRGKAIKPEILG
Result: 1615

Request: // query Rank (before) value for entry YAFTCHLQRYLVQRGV
Result: 1545

Request: For YAFTGHLHRYLVQRL , what is its reported Rank (before)?
Result: 834

Request: Quick check: Rank (before) of LKCGEPYFWSKLRYAM ?
Result: 2407

Request: Requested field: Rank (before). Item: FLSYRSLEKRFGPIGP
Result: 1344
